# System: male and female Sprague–Dawley rats
# protocol details: 90-day subchronic oral gavage toxicity study
# Type: in vivo, rat
# assay conditions: male
measure: LOEL, relative kidney weight increase (mg/kg-day)
Give bare numbers, in mg/kg-day.

compound	assayed target	LOEL, relative kidney weight increase [mg/kg-day]
C=CC(=O)OCC(F)(F)C(F)(F)C(F)(F)C(F)(F)C(F)(F)C(F)(F)C(F)(F)C(F)F [PFNAC, 1H,1H,9H-Perfluorononyl acrylate]	male and female Sprague–Dawley rats	1.0

Now look at this entry.
Prompt: // query LOEL, relative kidney weight increase value for entry FC(F)(F)C(F)(F)C(F)(F)C(F)(F)CCI [PFHI, 1H,1H,2H,2H-Perfluorohexyl iodide]
Response: 100

* * *

For each record, write down the corresponding solubility.
# protocol details: Solubility in dosing vehicles
# Format: physicochemical
# assay conditions: corn oil, oil or lipid; read-out: Solubility in corn oil

Working through the 3 compounds below one at a time, give solubility for each.
1. CC(=O)C(F)(F)C(F)(F)C(F)(F)F
2. C=CC(=O)OCC(F)(F)C(F)(F)C(F)(F)C(F)(F)C(F)(F)C(F)(F)C(F)(F)C(F)F [PFNAC, 1H,1H,9H-Perfluorononyl acrylate]
3. FC(F)(F)C(F)(F)C(F)(F)C(F)(F)CCI [PFHI, 1H,1H,2H,2H-Perfluorohexyl iodide]

Response:
1: ≤ 100 mg/mL; 2: ≤ 67 mg/mL; 3: ≤ 200 mg/mL

* * *

# Tested on: male and female Sprague–Dawley rats
# protocol details: 90-day subchronic oral gavage toxicity study
# Assay type: in vivo, rat
# assay conditions: female

molecule	LOEL, relative liver weight increase
C=CC(=O)OCC(F)(F)C(F)(F)C(F)(F)C(F)(F)C(F)(F)C(F)(F)C(F)(F)C(F)F [PFNAC, 1H,1H,9H-Perfluorononyl acrylate]	30 mg/kg-day
CC(=O)C(F)(F)C(F)(F)C(F)(F)F	NR
O=C(O)C(F)(Cl)C(F)(F)F (stereo not shown)	25 mg/kg-day
FC(F)(F)C(F)(F)C(F)(F)C(F)(F)CCI [PFHI, 1H,1H,2H,2H-Perfluorohexyl iodide]	100 mg/kg-day

* * *

# protocol details: Parent chemical in rat plasma, 14-day study
# Type: in vivo
# assay conditions: Sprague-Dawley, rat, plasma, oral; male, Day 15, 100 mg/kg-day
# Description: Dose-range-finding (14-day) studies were conducted using male and female rats to establish dose levels for 90-day studies and identify potential target organ toxicities. Male and female rats (n = 5 sex/group, a control and three dose groups, corn oil vehicle dose volume of 5 mL/kg) were administered PFASs by oral gavage daily for 14 days and euthanized on study day (SD) 15. […] Plasma samples were analyzed ~2 h post dosing on day 1 and at day 15 for the parent PFAS chemical. […]
measure: concentration at 15 day (ng/mL)
Numbers only, in ng/mL.

molecule	concentration at 15 day / ng/mL
FC(F)(F)C(F)(F)C(F)(F)C(F)(F)CCI [PFHI, 1H,1H,2H,2H-Perfluorohexyl iodide]	4.87

Now consider the entry below.
Prompt: Find the recorded concentration at 15 day belonging to O=C(O)C(F)(Cl)C(F)(F)F (centres unmarked) and report it.
Response: 99100

* * *

# protocol details: Parent chemical in rat plasma, 90-day study
# Type: in vivo
# assay conditions: Sprague-Dawley, rat, plasma, oral; female, Day 91, 100 mg/kg-day
measure: concentration at 91 day (µg/mL)
Answers are plain numbers, in µg/mL.

molecule	concentration at 91 day, µg/mL
FC(F)(F)C(F)(F)C(F)(F)C(F)(F)CCI [PFHI, 1H,1H,2H,2H-Perfluorohexyl iodide]	0.0483

// below: concentration at 91 day requested for another molecule
Prompt: Consider the molecule shown here: O=C(O)C(F)(Cl)C(F)(F)F (centres unmarked) [CTFPA] What is its recorded concentration at 91 day?
Response: 116

* * *

# System: male and female Sprague–Dawley rats
# protocol details: 90-day subchronic oral gavage toxicity study
# Type: in vivo, rat
# assay conditions: 90-day, both sexes, all doses
measure: Clinical observations

compound	assayed target	test value
FC(F)(F)C(F)(F)C(F)(F)C(F)(F)CCI [PFHI, 1H,1H,2H,2H-Perfluorohexyl iodide]	male and female Sprague–Dawley rats	None
CC(=O)C(F)(F)C(F)(F)C(F)(F)F	male and female Sprague–Dawley rats	None
C=CC(=O)OCC(F)(F)C(F)(F)C(F)(F)C(F)(F)C(F)(F)C(F)(F)C(F)(F)C(F)F [PFNAC, 1H,1H,9H-Perfluorononyl acrylate]	male and female Sprague–Dawley rats	None
O=C(O)C(F)(Cl)C(F)(F)F (stereo not shown)	male and female Sprague–Dawley rats	None
